Reference for the values: patent US20250171558A1

System Under Test: human FcRn/B2 microglobulin
Assay Comment: SPR; pH 6.0
Recorded Kd, one value per entry.
# value in µM; strip the unit string

Q: Report Kd for GAALIE LS-
A: 0.0199

Q: State, in one line, measured Kd of GAALIE LS+
A: 0.0014

###

System Under Test: FcγRIII
Assay Comment: SPR; rhesus FcγR
Measured Metric: pKd
FYI, pKd means -log10 of a concentration in mol per litre.

Q: Quick one: give measured pKd for `GAALIE`
A: 7.04

###

System Under Test: FcγRIV
Assay Comment: SPR; mouse FcγR
Measured Metric: Kd (nM)
# output: bare number, implied unit nM

Q: Answer with the recorded Kd of `GAALIE` only.
A: 207

###

System Under Test: FcγRIII
Assay Comment: SPR; mouse FcγR
Measured Metric: pKd
Lab note — pKd values are minus log10 of concentrations in M.

Q: State its pKd for this substance: `GAALIE`
A: 5.62

###

System Under Test: FcγRIIIa V
Assay Comment: SPR; human FcγRIIIa V157
Measured Metric: Kd (nM)
Response body: numeric value in nM, unit text excluded.

Q: Identify measured Kd associated with `GAALIE`
A: 131

###

System Under Test: FcγRIIa H
Assay Comment: SPR; human FcγRIIa H131
Measured Metric: pKd
As a rule, pKd stands for the negative log10 of the concentration, concentration in M.

Q: Check the records and state pKd for `GAALIE`
A: 6.21

###

System Under Test: FcγRIIa
Assay Comment: SPR; rhesus FcγR
Measured Metric: pKd
A value of pKd is the negative decimal logarithm of a concentration given in moles per litre.

Q: Answer with reported pKd of `GAALIE`
A: 5.04

###

System Under Test: FcγRIIa R
Assay Comment: SPR; human FcγRIIa R131
Measured Metric: pKd
// scale note: pKd = -log10(conc_M); give the bare number

Q: Identify pKd associated with the substance `GAALIE`
A: 6.09

###

System Under Test: FcγRI
Assay Comment: SPR; rhesus FcγR
Measured Metric: Kd
Reply with the number and its unit after it.

Q: Determine from records and report Kd for `GAALIE`
A: 0.457 nM

###

System Under Test: FcγRIIb
Assay Comment: SPR; rhesus FcγR
Measured Metric: Kd (µM)
Record the value in µM, omitting the unit from your answer.

Q: Given `GAALIE` , report its Kd on FcγRIIb.
A: 6.92
